Recorded values, source PubChem BioAssay (NCATS).

Test system: CP260
Assay: qHTS profiling for inhibitors of Plasmodium falciparum proliferation (AID 504749); note: nearly all actives have a fitted effect of over 60% in size
Details: P. falciparum in erythrocytes, SYBR Green DNA, 72 h; series mostly up to 12.8 µM
Inconclusive results are not listed. Activity calls are given as the source filed them. Calls come from the whole dose curve; as a rule, active = well fitted inhibition curve with a large enough effect; inconclusive = small, poorly fitted or top-dose-only effect; inactive = flat fitted curve, though single readings scatter.
Log the outcome using a class from active, inactive

Compound	Assigned Label
C[N+]12CCC(CC1)[C@@H](OC(=O)C(O)(c1ccccc1)c1ccccc1)C2	inactive
Cc1ncc([N+](=O)[O-])n1C[C@H](O)CCl	inactive

Assay outcome for `CC=C(/C(=C/C)c1ccc(O)cc1)c1ccc(O)cc1` : what was it?
inactive

Could you do the same for C[C@@]12CCC(=O)C=C1C=CC1C2CC[C@]2(C)C1CC[C@@]21CCC(=O)O1 (stereo not given in full) , please?
inactive

Repeat with CO[C@]1(NC(=O)C2SC(=C(C(N)=O)C(=O)O)S2)C(=O)N2C(C(=O)O)=C(CSc3nnnn3C)CS[C@H]21 (stereo not given in full)
inactive

Please give the result for `CC[C@H]1NC(=O)c2cc(S(N)(=O)=O)c(Cl)cc2N1` too.
inactive
